- EXPERIMENTAL_PROTOCOL: Hemolytic activity
- Type: cell-based, Human
- STUDY_CONDITIONS: human, human red blood cell suspension; hRBCs, 1 h at 37° C.; read-out: HD50, dose required to lyse 50% of the red blood cells
HC50 at 1 h overview

{"MOLECULE": "CC(=O)N[C@@H](CCCCN)c1nc(C)sc1C(=O)N[C@@H](C)c1nc(CCCCN)sc1C(=O)N[C@@H](C)c1nc(C)sc1C(N)=O", "ENDPOINT": "HC50 at 1 h", "RECORDED_RESULT": "> 100 µM"}
{"MOLECULE": "CC(=O)N[C@@H](CCCCN)c1nc(C)sc1C(=O)N[C@@H](C)c1nc(CCCCN)sc1C(=O)N[C@@H](C)c1nc(C)sc1C(=O)N[C@@H](CCCCN)c1nc(C)sc1C(=O)N[C@@H](C)c1nc(CCCCN)sc1C(=O)N[C@@H](C)c1nc(C)sc1C(=O)N[C@@H](CCCCN)c1nc(C)sc1C(=O)N[C@@H](C)c1nc(CCCCN)sc1C(=O)N[C@@H](C)c1nc(C)sc1C(=O)N[C@@H](CCCCN)c1nc(C)sc1C(=O)N[C@@H](C)c1nc(CCCCN)sc1C(=O)N[C@@H](C)c1nc(C)sc1C(N)=O", "ENDPOINT": "HC50 at 1 h", "RECORDED_RESULT": "> 100 µM"}

Could you now look at the following molecule, please?
-- ask Return reported HC50 at 1 h. Input molecule: `CC(=O)N[C@@H](CCCCN)c1nc(C)sc1C(=O)N[C@@H](C)c1nc(CCCCN)sc1C(=O)N[C@@H](C)c1nc(C)sc1C(=O)N[C@@H](CCCCN)c1nc(C)sc1C(=O)N[C@@H](C)c1nc(CCCCN)sc1C(=O)N[C@@H](C)c1nc(C)sc1C(N)=O`
-- reply > 100 µM
